The measurements presented in this section are drawn from ChEMBL document CHEMBL5131558.

EXPERIMENT_NOTES: Half life of the compound
Format: physicochemical
MEASURED_QUANTITY: half-life (min)
// units = min; emit number, no label

Ask: What value of measured half-life is listed for CC1(C)C(/C=C/C2=C(Cl)C(=C/C=C3/N(CCCCCC(=O)O)c4ccccc4C3(C)C)/CCC2)=[N+](CCCCCC(=O)O)c2ccccc21 ?
Reply: 30
